TARGET_SYSTEM: pooled human IgG (human); further: test concentration or dose not given here
TEST_PROTOCOL: cell-based or functional assay
Attribute: Enzyme Activity Endpoint Assay (purified): Fab′2
Write the number in ng/µL without appending the unit.

[
  {
    "BINDER": "PRT-215 (enzyme) MEVVEVWPYGQNPNGKTEILSQTEDSESLQRLRDIEDFQAEKKKEGVVYTKWLDGVTVKDHDFRKIVDGNIEYYATPLLNGRGWYDINKDFNRDSDKCAAAVAANMFHYWLDRNRDNVDRFLKQNPEKHGIIELPDGQLKLSDFLNTYESDNGYRDKSKLFDFISKNFNGPVWTDKLLDNYINGYGYNYKYGRTIEDPTKNTSKINFFKKVFNEKILTDIHSIRNQNEFSDLLSEALYTGKAIGLSYGPAGLRHSLGHIISVWGADFDEDGNVVAIYVTDSDDKKLTIGDERVGLKRYKVSTDDEGRARLTAYTETDNTGGQVRGLWTLDTGTQAWADYFDKTEQTGTDQAEQLEHHHHHH",
    "EXPERIMENTAL_RESULT": 73
  }
]

What value of measured Enzyme Activity Endpoint Assay (purified): Fab′2 is listed for PRT-217 (enzyme) MEVVEVWPYGQNPNGKTEILSQTEDSESLQRLRDIEDFQAEKKKQNVVYTKWLDGVTVDDSDFRKIKDGNTEYYATPLLNGRGFYDINKDFNRDSDKCAAAVAANMFHYWLDRNRDNVDRFLKQNPEKHGIIELPDGQLKLSDFLNTYESDNNYRDKSKLFDFISKNFNGPVWTNKLLDNYINGYGYNYKYGRTIEDPTKNTSKINFFKKVFNEKILTNVHQIFNYNEFSTLLSEALYTGKAIGLSYGPGGLRHSLGHIISVWGADLDADGNVVAIYVTDSDDKKLTIGDERVGLKRYKISTDDEGRARLTAYTETDNTGGQVRGIYTLDTGKQAWADYFDKTEQTGTDQAEQLEHHHHHH ?
0

Values were extracted from patent US20250027068A1.
